# test system: WT CBL-B (36-427) (Homo sapiens, UniProt Q13191)
# Construct: N-terminal biotinylated WT CBL-B (36-427) and C-CBL (46-435) were captured on a streptavidin (SA) coated sensor chip
# Sequence (Q13191 36-427): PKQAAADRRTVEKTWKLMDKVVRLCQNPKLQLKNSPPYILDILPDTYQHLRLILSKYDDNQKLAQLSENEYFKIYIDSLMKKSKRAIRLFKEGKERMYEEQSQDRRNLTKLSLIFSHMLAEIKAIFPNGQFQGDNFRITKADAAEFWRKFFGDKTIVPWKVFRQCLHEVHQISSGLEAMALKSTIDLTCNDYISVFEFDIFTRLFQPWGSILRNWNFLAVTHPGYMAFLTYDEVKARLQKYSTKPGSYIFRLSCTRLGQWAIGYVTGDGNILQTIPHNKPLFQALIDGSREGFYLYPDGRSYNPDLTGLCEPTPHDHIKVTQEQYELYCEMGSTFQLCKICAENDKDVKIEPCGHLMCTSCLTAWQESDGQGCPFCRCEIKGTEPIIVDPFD
# protocol: Surface Plasmon Resonance (SPR) assay, binding affinity and kinetics, CBL-B
# assay conditions: SPR at 10° C., biotinylated WT CBL-B (36-427) on streptavidin chip; geometric mean; read-out: CBL-B SPR Kd (nM) GMean
Flag rule - Kd less than 6 nM flags Met; the remaining entries get Not met.

C[C@H](c1nc(C(F)(F)F)cc2c(-c3cccc(C4(Cc5nncn5C)COC4)c3)n[nH]c12)N1CC[C@@H](F)C1 (single isomer, unassigned) ... Met
Cn1cnnc1CC1(c2cccc(-c3n[nH]c4c(CN[C@@H]5CCOC5)nc(C(F)(F)F)cc34)c2)COC1 ... Not met
CC(N[C@@H]1CCOC1)c1nc(C(F)(F)F)cc2c(-c3cccc(C4(Cc5nncn5C)COC4)c3)n[nH]c12 (single isomer, unassigned) [Example C86] ... Met
C[C@H]1CN(Cc2nc(C(F)(F)F)cc3c(-c4cccc(C5(Cc6nncn6C)COC5)c4)n[nH]c23)CCO1 ... Met
CC(CN)c1nc(C(F)(F)F)cc2c(-c3cccc([C@H](c4nncn4C)C4CCC4)c3)n[nH]c12 (single isomer, unassigned) [Example K15] ... Not met

Source: patent US20260125375A1
